We begin with a simple list: items and their reported TGI.
test system: HL-60(TB) leukemia; experiment: NCI tumour cell line growth inhibition, 48 h
QUANTITY_KIND: TGI (µM)

1) O=C(/C=C/c1ccc(Cl)cc1)c1ccc(Cl)cc1Cl; 27.9
2) COc1cc2c(c3c1C=CCO3)C(=O)c1ccccc1C2=O; 57.7
3) Cc1cc2c(cc1C)[n+](=O)c(C(=O)C/C(=N/NC(=O)c1ccccc1O)C(=O)Nc1ccccc1C(C)C)c(C)n2[O-]; 37.9
4) O=[Se]([O-])c1ccccc1.O=[Se]([O-])c1ccccc1.[OH3+].[OH3+].[Pt+2]; 5.66

Values were extracted from PubChem BioAssay (NCI).
